B1: library; numbered along this chain (parent)
chain: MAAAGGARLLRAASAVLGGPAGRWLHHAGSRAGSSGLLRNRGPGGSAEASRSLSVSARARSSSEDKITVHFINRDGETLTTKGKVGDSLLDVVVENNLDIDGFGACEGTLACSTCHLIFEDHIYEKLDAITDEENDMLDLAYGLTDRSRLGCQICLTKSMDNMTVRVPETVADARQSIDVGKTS

variants of: B1; assay: scaled log2 fold change in cell abundance, elesclomol vs control (0 = silent mean, 1 = nonsense mean) (scaled log2 ratio); higher = higher viability under elesclomol (loss of FDX1 cuproptosis function); details: with ABC1 FDX1 KO; elesclomol 5 nM; glucose 10 mM; 14 days;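 also: variant abundance is its share of total variant reads in each endpoint sample, from next-generation sequencing of the integrated ORF PCR-amplified out of genomic DNA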
metricName: scaled log2 fold change
One number for each entry.

> print(dat)
   variantkey    val
1       I100E  0.167

Below are some variants; for each one, tell me its scaled log2 fold change.
1. I100T
2. G22T
3. P20S
4. G45R
5. A105G
6. A59P
7. L38W

1: 0.138; 2: -0.511; 3: -0.324; 4: 0.363; 5: -0.0984; 6: -0.0792; 7: -0.0179

Below are some variants; for each one, tell me its scaled log2 fold change.
1. R31Q
2. A3R
3. L38H

1. 0.031
2. 0.464
3. 0.153

Below are some variants; for each one, tell me its scaled log2 fold change.
1. A28F
2. T80E
3. V93D
4. T145L
5. N73V

[0.368, 0.301, 0.877, 0.169, 0.102]

Below are some variants; for each one, tell me its scaled log2 fold change.
1. T68Y
2. A141S
3. L10D
4. G86H

1: 0.308; 2: -0.0824; 3: 0.404; 4: 0.239

Below are some variants; for each one, tell me its scaled log2 fold change.
1. E169V
2. A47D
3. L117E
4. A32H
5. L127H
6. G76T

-0.251
0.728
1.05
-0.58
0.038
0.217

Below are some variants; for each one, tell me its scaled log2 fold change.
1. S113A
2. T170M
3. E48L
4. L138A
5. T78G
6. V94Y
7. S159T

[0.165, -0.185, 0.58, 0.519, -0.0398, -0.0972, -0.475]

Below are some variants; for each one, tell me its scaled log2 fold change.
1. M163Y
2. D87S

0.547
-0.493

Below are some variants; for each one, tell me its scaled log2 fold change.
1. G83A
2. I100M
3. R60C
4. Y142Q

1: 0.184; 2: -0.119; 3: 0.327; 4: -0.102

All values here come from the supplement of paper PMC12855868.
